The origin of these recorded values is patent US8178506B2.

Task for the reader: assign each of the following substances its reported % cells in cell cycle phase: G2/M.
System: HeLa cells
Experiment Description: Cell cycle assay in HeLa cells
Assay type: cell-based, human
Protocol Conditions: HeLa cells, 150 nM oligomeric compound, 48 hours after treatment; relative to untreated control (UTC=100)
In the oligonucleotide strings, read from the 5' end, every base follows the letter of its sugar. An asterisk marks phosphorothioate; unmarked linkages are phosphodiester. Other units and linkages are bracketed, terminal groups are in braces. A string of capitals states the bases alone. e = 2'-O-(2-methoxyethyl) (MOE); [5mC] = 5-methylcytosine; d = 2'-deoxy (DNA)
Give just the numeric value; % need not be written.

Name the reported % cells in cell cycle phase: G2/M value associated with the substance 338678 (antisense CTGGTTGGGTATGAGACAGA; all 2'-MOE, all phosphorothioate, methylation of C not given here) [compound 338678]
188

Name the reported % cells in cell cycle phase: G2/M value associated with the substance 327877 (antisense e[5mC]*eG*e[5mC]*e[5mC]*eA*eA*eT*eA*eT*eT*eT*eA*e[5mC]*eG*eT*eG*e[5mC]*eT*eG*e[5mC]*eT*eA) [compound 327877]
168

Name the reported % cells in cell cycle phase: G2/M value associated with the substance 328115 (antisense eA*eG*eA*eA*eG*eG*eT*eG*eG*eG*eG*eA*eG*e[5mC]*eA*eG*e[5mC]*eG*eT*e[5mC]*eA) [compound 328115]
107

Name the reported % cells in cell cycle phase: G2/M value associated with the substance 328727 (antisense e[5mC]*eT*eG*e[5mC]*eT*d[5mC]*d[5mC]*dA*dG*dA*dG*d[5mC]*d[5mC]*d[5mC]*dG*eA*eG*eT*e[5mC]*eG) [compound 328727]
124

Name the reported % cells in cell cycle phase: G2/M value associated with the substance 328374 (eA*eG*e[5mC]*eT*eT*dT*dA*dG*d[5mC]*dT*dG*dG*dG*dT*d[5mC]*eA*eG*eG*eA*e[5mC]; antisense) [compound 328374]
143

Name the reported % cells in cell cycle phase: G2/M value associated with the substance 340925 (antisense GTGGTAATCCCTGGCAATGTGAT; sugars from the 5' end e5 d10 e8, all phosphorothioate, methylation of C not given here) [compound 340925]
109

Name the reported % cells in cell cycle phase: G2/M value associated with the substance 341788 (antisense AGCCAAGCTCAGACGGATCCGA; all 2'-MOE, all phosphorothioate, methylation of C not given here) [compound 341788]
163

Name the reported % cells in cell cycle phase: G2/M value associated with the substance 327957 (antisense e[5mC]*eA*e[5mC]*eA*eA*eG*eT*eT*e[5mC]*eG*eG*eA*eT*e[5mC]*eT*eA*e[5mC]*eG*eG*eG*eT*eT) [compound 327957]
127

Name the reported % cells in cell cycle phase: G2/M value associated with the substance 340365 (antisense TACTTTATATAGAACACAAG; sugars from the 5' end e5 d10 e5, all phosphorothioate, methylation of C not given here) [compound 340365]
109

Name the reported % cells in cell cycle phase: G2/M value associated with the substance 327885 (antisense eA*e[5mC]*eT*eA*e[5mC]*e[5mC]*eT*eG*e[5mC]*eA*e[5mC]*eT*eG*eT*eA*eA*eG*e[5mC]*eA*e[5mC]*eT*eT*eT*eG) [compound 327885]
133

Name the reported % cells in cell cycle phase: G2/M value associated with the substance 328749 (antisense e[5mC]*eA*eG*e[5mC]*e[5mC]*dT*dG*d[5mC]*d[5mC]*dA*d[5mC]*d[5mC]*dG*d[5mC]*d[5mC]*eG*e[5mC]*eT*eT*eT) [compound 328749]
246

Name the reported % cells in cell cycle phase: G2/M value associated with the substance 341787 (antisense CACAGGTTAAAGGGTCTCAGGGA; all 2'-MOE, all phosphorothioate, methylation of C not given here) [compound 341787]
197

Name the reported % cells in cell cycle phase: G2/M value associated with the substance 327904 (antisense eA*e[5mC]*eT*e[5mC]*eA*e[5mC]*e[5mC]*eG*eA*e[5mC]*eA*eG*e[5mC]*eG*eT*eT*eG*eA*eA*eT*eG*eT*eT) [compound 327904]
114

Name the reported % cells in cell cycle phase: G2/M value associated with the substance 338637 (antisense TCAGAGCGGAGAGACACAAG; all 2'-MOE, all phosphorothioate, methylation of C not given here) [compound 338637]
117

Name the reported % cells in cell cycle phase: G2/M value associated with the substance 338836 (antisense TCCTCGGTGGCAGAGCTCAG; all 2'-MOE, all phosphorothioate, methylation of C not given here) [compound 338836]
169

Name the reported % cells in cell cycle phase: G2/M value associated with the substance 338797 (antisense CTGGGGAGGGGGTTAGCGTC; all 2'-MOE, all phosphorothioate, methylation of C not given here) [compound 338797]
168

Name the reported % cells in cell cycle phase: G2/M value associated with the substance 328780 (antisense eT*eG*eT*e[5mC]*eA*dT*dG*dG*dA*d[5mC]*dA*dG*dG*dA*dT*eG*eA*eA*eT*eA) [compound 328780]
110

Name the reported % cells in cell cycle phase: G2/M value associated with the substance 327922 (antisense eT*e[5mC]*eA*eG*eT*eT*eT*eT*eG*e[5mC]*eA*eT*eG*eG*eA*eT*eT*eT*eG*e[5mC]*eA*e[5mC]*eA) [compound 327922]
109

Name the reported % cells in cell cycle phase: G2/M value associated with the substance 338833 (antisense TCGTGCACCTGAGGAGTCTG; all 2'-MOE, all phosphorothioate, methylation of C not given here) [compound 338833]
258

Name the reported % cells in cell cycle phase: G2/M value associated with the substance 327892 (antisense eA*e[5mC]*eT*eT*eT*e[5mC]*eG*eG*eT*eT*eA*eT*e[5mC]*eT*eA*eG*e[5mC]*eT*eT*eT*eA) [compound 327892]
129

Name the reported % cells in cell cycle phase: G2/M value associated with the substance 327956 (antisense e[5mC]*eA*e[5mC]*eA*eG*eT*eT*eG*e[5mC]*e[5mC]*eA*eG*e[5mC]*eT*eG*eA*eG*eA*eT*eT*eA) [compound 327956]
121
